system_tested: T1, corticotropin-releasing hormone (CRH) peptide (human and mouse, UniProt P01143 145-185 (rat entry), not fully specified)
T1 peptide: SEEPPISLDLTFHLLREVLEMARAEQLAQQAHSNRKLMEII
protocol_summary: cell-based or functional assay
I'd be grateful if you could share measured hCRHR1-Luc 0.5 nM CRH IC50 for these entries.
Report only the number, with the unit nM understood.

INPUT: Query: hCRHR1-Luc 0.5 nM CRH IC50; subject: PR302334-14 (antibody, human IgG1, kappa, V domains shown) VH: EVQLVESGGGLVQPGGSLRLSCAASGFTFSTYAMSWVRQAPGKGLEWVASIRSGGTTYYPDSVKGRFTISRDNSKNTLYLQMNSLRAEDTAVYYCTRGIDWGQGTTVTVSS VL: NIVMTQTPKFLLVSAGDRITITCKASQSVNNDVAWYQQKPGQSPKLLIYYASNRYTGVPDRFTGSGYGTDFTFTISTVQAEDLAVYFCQQDYSSWTFGGGTNLEIKR
OUTPUT: 0.468

INPUT: Look up hCRHR1-Luc 0.5 nM CRH IC50: PR302334-18 (antibody, human IgG1, kappa, V domains shown) VH: EVQLVESGGGLVQPGGSLRLSCAASGFTFSTYAMSWVRQAPGKGLEWVASIRSGGTTYYPDSVKGRFTISRDNSKNSLYLQMNSLRAEDTAVYYCTRGIDWGQGTTVTVSS VL: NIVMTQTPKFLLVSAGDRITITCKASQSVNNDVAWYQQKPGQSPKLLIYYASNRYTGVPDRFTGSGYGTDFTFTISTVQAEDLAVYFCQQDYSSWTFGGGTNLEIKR
OUTPUT: 0.279

INPUT: Param item = PR302334-24 (antibody, human IgG1, kappa, V domains shown) VH: EVQLVESGGGLVKPGGSLRLSCAASGFTFSTYAMSWVRQAPGKGLEWVASIRSGGTTYYPDSVKGRFTISRDNAKNSLYLQMNSLRAEDTAVYYCTRGIDWGQGTTVTVSS VL: DIVMTQSPDSLAVSLGERATINCKASQSVNNDVAWYQQKPGQPPRLLIYYASNRYTGVPDRFSGSGSGTDFTLTISSLQAEDLAVYFCQQDYSSWTFGGGTKVEIKR ; retrieve measured hCRHR1-Luc 0.5 nM CRH IC50.
OUTPUT: 0.778

INPUT: Sample PR302334-6 (antibody, human IgG1, kappa, V domains shown) VH: EVKLVESGGGLVKPGGSLKLSCAASGFTFSTYAMSWVRQTPEKRLEWVASIRSGGTTYYPDSVKGRFTISRDNARNILYLQMSSLRSEDTAIYYCTRGIDWGQGTLVTVSA VL: DIQMTQSSLSASVSLGDRVTITCKASQSVNNDVAWYQQKPGKAPRLLIYYASNRYTGVPSRFSGSGSGTDFTFTISSLQPEDLATYFCQQDYSSWTFGGGTKVEIKR — what was its hCRHR1-Luc 0.5 nM CRH IC50?
OUTPUT: 0.404

INPUT: Query: hCRHR1-Luc 0.5 nM CRH IC50; subject: PR302334-25 (antibody, human IgG1, kappa, V domains shown) VH: EVQLVESGGGLVKPGGSLRLSCAASGFTFSTYAMSWVRQAPGKGLEWVASIRSGGTTYYPDSVKGRFTISRDNAKNSLYLQMNSLRAEDTAVYYCTRGIDWGQGTTVTVSS VL: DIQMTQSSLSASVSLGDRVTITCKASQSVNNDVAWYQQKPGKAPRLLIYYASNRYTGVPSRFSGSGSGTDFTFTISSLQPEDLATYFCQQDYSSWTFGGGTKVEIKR
OUTPUT: 1.7

INPUT: Entry under review: PR302334-16 (antibody, human IgG1, kappa, V domains shown) VH: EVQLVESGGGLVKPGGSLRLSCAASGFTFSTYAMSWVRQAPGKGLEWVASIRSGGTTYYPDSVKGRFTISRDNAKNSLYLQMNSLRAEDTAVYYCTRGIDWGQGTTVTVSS VL: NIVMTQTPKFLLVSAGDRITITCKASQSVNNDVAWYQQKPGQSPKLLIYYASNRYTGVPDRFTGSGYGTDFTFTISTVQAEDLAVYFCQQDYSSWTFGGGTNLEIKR . Reported hCRHR1-Luc 0.5 nM CRH IC50?
OUTPUT: 0.339

INPUT: Quick check: hCRHR1-Luc 0.5 nM CRH IC50 of PR302334-2 (antibody, human IgG1, kappa, V domains shown) VH: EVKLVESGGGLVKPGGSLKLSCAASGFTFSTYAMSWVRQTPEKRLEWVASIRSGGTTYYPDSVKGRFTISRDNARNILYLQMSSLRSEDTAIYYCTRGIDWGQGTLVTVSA VL: EIVMTQSPATLSVSPGERATLSCKASQSVNNDVAWYQQKPGQAPRLLIYYASNRYTGIPARFSGSGSGTEFTLTISSLQSEDLAVYFCQQDYSSWTFGGGTKVEIKR ?
OUTPUT: 0.597

INPUT: Sample PR302334-10 (antibody, human IgG1, kappa, V domains shown) VH: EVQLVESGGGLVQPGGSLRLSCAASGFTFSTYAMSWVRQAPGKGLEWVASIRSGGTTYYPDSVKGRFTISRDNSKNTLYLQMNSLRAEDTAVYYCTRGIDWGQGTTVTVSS VL: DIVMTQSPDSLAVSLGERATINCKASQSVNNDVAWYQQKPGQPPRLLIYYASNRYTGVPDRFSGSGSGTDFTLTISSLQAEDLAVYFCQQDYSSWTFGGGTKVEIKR — what was its hCRHR1-Luc 0.5 nM CRH IC50?
OUTPUT: 0.839

INPUT: Look up hCRHR1-Luc 0.5 nM CRH IC50 for this binder: PR302334-27 (antibody, human IgG1, kappa, V domains shown) VH: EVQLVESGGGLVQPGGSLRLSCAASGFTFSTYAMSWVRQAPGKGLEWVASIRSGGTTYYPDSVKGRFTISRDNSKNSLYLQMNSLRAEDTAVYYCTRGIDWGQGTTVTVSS VL: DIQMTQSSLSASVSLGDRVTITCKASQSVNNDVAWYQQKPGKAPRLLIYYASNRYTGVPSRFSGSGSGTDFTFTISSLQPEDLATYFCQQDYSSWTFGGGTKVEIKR
OUTPUT: 1.36

INPUT: For the binder PR302334-9 (antibody, human IgG1, kappa, V domains shown) VH: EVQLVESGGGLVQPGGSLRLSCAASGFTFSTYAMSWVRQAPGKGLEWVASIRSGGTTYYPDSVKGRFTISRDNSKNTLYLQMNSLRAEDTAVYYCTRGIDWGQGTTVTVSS VL: DIVMTQSPDSLAVSLGERATINCKASQSVNNDVAWYQQKPGQPPRLLIYYASNRYTGVPDRFSGSGSGTDFTLTISSLQAEDVAVYYCQQDYSSWTFGGGTKVEIKR , what hCRHR1-Luc 0.5 nM CRH IC50 is on record?
OUTPUT: 1.42

INPUT: Given the binder PR302334-26 (antibody, human IgG1, kappa, V domains shown) VH: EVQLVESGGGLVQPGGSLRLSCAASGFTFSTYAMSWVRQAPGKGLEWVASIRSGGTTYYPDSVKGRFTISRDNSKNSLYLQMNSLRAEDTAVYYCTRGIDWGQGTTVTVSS VL: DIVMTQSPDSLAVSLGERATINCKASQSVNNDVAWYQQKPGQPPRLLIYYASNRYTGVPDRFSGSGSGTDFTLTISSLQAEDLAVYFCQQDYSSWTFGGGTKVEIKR , what is its reported hCRHR1-Luc 0.5 nM CRH IC50?
OUTPUT: 1.1

INPUT: Quick one: hCRHR1-Luc 0.5 nM CRH IC50 for PR302334-5 (antibody, human IgG1, kappa, V domains shown) VH: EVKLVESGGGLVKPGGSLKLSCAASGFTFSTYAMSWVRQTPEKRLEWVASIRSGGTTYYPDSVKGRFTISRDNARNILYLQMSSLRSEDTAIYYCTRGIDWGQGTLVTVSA VL: DIQMTQSSLSASVSLGDRVTITCKASQSVNNDVAWYQQKPGKAPRLLIYYASNRYTGVPSRFSGSGSGTDFTFTISSLQPEDIATYYCQQDYSSWTFGGGTKVEIKR ?
OUTPUT: 0.325
